target: AMPA-Receptor; assay: [3H] CNQX binding test (AMPA-receptor binding); details: brain membranes, 5 nM [3H]-CNQX, 4° C., 40 min
attribute_measured: IC50

>  <compound>
CCOC(C)c1cc2c(=O)n(NS(C)(=O)=O)c(=O)[nH]c2cc1C(F)(F)F (stereo not shown)

>  <attribute_measured>
IC50

>  <result>
< 1 µM

$$$$

----------
melting point: recorded values

>  <compound>
CCC(=O)c1cc2c(=O)n(NS(C)(=O)=O)c(=O)[nH]c2cc1C(F)(F)F [Example 6]

>  <melting point>
234 to 236 °C

$$$$
>  <compound>
CC(=O)c1cccc(-c2cc3c(=O)n(NS(C)(=O)=O)c(=O)[nH]c3cc2C(F)(F)F)c1 [Example 36]

>  <melting point>
220 to 222 °C

$$$$
>  <compound>
COC(C)c1cc2c(=O)n(NS(C)(=O)=O)c(=O)[nH]c2cc1C(F)(F)F (stereo not shown) [Example 3]

>  <melting point>
233 to 236 °C

$$$$
>  <compound>
CC(=O)c1cc2c(=O)n(NS(C)(=O)=O)c(=O)[nH]c2cc1C(F)(F)F [Example 1]

>  <melting point>
258 to 265 °C

$$$$
